Tested on: 156681-154-R-J1 tumor spheroid viability;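 also: spheroids exposed to compounds for 7 days before readout; percent of vehicle control viability where 100% = DMSO-treated spheroids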
Test: Anticancer human tumor 156681-154-R-J1 patient-derived melanoma cell line growth inhibition
Conditions: second compound 1 µM; first compound 0.316 µM; hits give low values; spheroids with HUVEC and MSC

| MOLECULE | viability, T/C (%) |
| --- | --- |
| COc1cc(C)[nH]c(=O)c1CN1CCc2c(Cl)cc(C(OC)C3COC3)c(Cl)c2C1=O (stereo unspecified) + Cn1nnc2c(C(N)=O)ncn2c1=O | 116 |
| [2H]c1nc(C)nc([2H])c1-c1cc(NC[C@@H](C)c2cccc3c(C(=O)NC)ccnc23)ncn1 + Cn1nnc2c(C(N)=O)ncn2c1=O | 104 |
| CC(C)n1c(=O)n(C)c2cnc3cc(F)c(-c4ccc(OCCCN5CCCCC5)nc4)cc3c21 + Cn1nnc2c(C(N)=O)ncn2c1=O | 110 |
| CC1COCCN1c1cc(-c2ccnn2C)c2ccnc(-c3ccn[nH]3)c2n1 (stereo unspecified) + Cn1nnc2c(C(N)=O)ncn2c1=O | 32.1 |
| Cc1cc(C)c(CNC(=O)c2cc(-c3ccc(CN4CCOCC4)cc3)cc3c2cnn3C2CCCC2)c(=O)[nH]1 + Cn1nnc2c(C(N)=O)ncn2c1=O | 90.2 |
| COc1ccc([C@@H](O)c2cc(-c3ncnc4cc(N5CCOCC5)ccc34)c(F)cc2Cl)nn1 + Cn1nnc2c(C(N)=O)ncn2c1=O | 86 |
